I'd appreciate it if you could supply solubility values for the items below.
# assay protocol: Solubility in water at PH 7.4 in the presence of Tris.HCl buffer
# Format: physicochemical

// solved cases for solubility follow
CCCn1c(=O)c2nc(-c3ccc(OCC(N)=O)cc3O)[nH]c2n(CCC)c1=O = 5600 µM
CCCn1c(=O)c2nc(-c3ccc(OCC(=O)NCCN)cc3O)[nH]c2n(CCC)c1=O = 710 µM
CCCn1c(=O)c2[nH]c(C3CCCC3)nc2n(CCC)c1=O = 31 µM
CCCn1c(=O)c2[nH]c(-c3ccc(OC)cc3O)nc2n(CCC)c1=O = 18 µM

Could I get solubility for every one of these entries?
1. CCCn1c(=O)c2[nH]c(-c3ccccc3)nc2n(CCC)c1=O
2. CCCn1c(=O)c2[nH]c(-c3ccc(O)cc3O)nc2n(CCC)c1=O
3. CCCn1c(=O)c2nc(-c3ccc(OC)cc3)[nH]c2n(CCC)c1=O
4. CCCn1c(=O)c2nc(-c3ccc(OCC(=O)O)cc3O)[nH]c2n(CCC)c1=O

Response:
18 µM
11 µM
14 µM
1100 µM

Could I get solubility for every one of these entries?
1. CCCn1c(=O)c2nc[nH]c2n(CCC)c1=O
2. CCCn1c(=O)c2nc(-c3ccc(C(=O)O)cc3)[nH]c2n(CCC)c1=O
3. CCCn1c(=O)c2[nH]c(-c3ccc(C(N)=O)cc3)nc2n(CCC)c1=O
4. CCCn1c(=O)c2nc(C3CCCCC3)[nH]c2n(CCC)c1=O

Response:
["1600 µM", "180 µM", "5 µM", "74 µM"]

---

# target: Adenosine A2 receptor (Homo sapiens, UniProt P29275+P29274)
# assay protocol: Inhibition of 5'-(N-ethylcarbamoyl)adenosine-elicited stimulation of adenylate cyclase in human platelet membranes
# Assay type: cell membranes
# note: exactly 2000 nM is not below, so it is Criterion not met; use Criterion met for Kb strictly under it

Solved entries:
CCCn1c(=O)c2nc(-c3ccc(OCC(=O)NCCc4c[nH]cn4)cc3O)[nH]c2n(CCC)c1=O = Criterion not met
CCCn1c(=O)c2nc(-c3ccc(OCC(=O)NCCc4ccc(O)cc4)cc3O)[nH]c2n(CCC)c1=O = Criterion not met
CCCn1c(=O)c2nc(CC3CCCCC3)[nH]c2n(CCC)c1=O = Criterion not met

Query: Lab note: Kb threshold 2000 nM. Does this compound come in strictly under it? `CCCn1c(=O)c2nc(-c3cnccn3)[nH]c2n(CCC)c1=O`
Response: Criterion not met

Query: Another compound: `CCCn1c(=O)c2nc(C3CCCCC3)[nH]c2n(CCC)c1=O`
Response: Criterion met

Query: Another compound: `CCCn1c(=O)c2nc(CC3CCCC3)[nH]c2n(CCC)c1=O`
Response: Criterion met

Query: Another compound: `CCCn1c(=O)c2nc(C3CCNCC3)[nH]c2n(CCC)c1=O`
Response: Criterion not met

Query: Another compound: `CCCn1c(=O)c2nc(-c3ccc(OCC(=O)NCCN)cc3O)[nH]c2n(CCC)c1=O`
Response: Criterion met

Query: Another compound: `CCCn1c(=O)c2nc(-c3ccc(OCC(=O)OCC)cc3O)[nH]c2n(CCC)c1=O`
Response: Criterion not met

---

I'd appreciate it if you could supply log10(Kb) values for the items below.
# target: Adenosine receptor A1 (Rattus norvegicus)
# assay protocol: Antagonistic activity on N6-([3H]-phenylisopropyl)adenosine binding to rat brain membrane (Adenosine A1 receptor)
# Format: tissue-based
// stored as log10 of Kb expressed in nM

// solved cases for log10(Kb) follow
CCCn1c(=O)c2nc(-c3ccc(OCC(=O)NCCc4ccc(O)cc4)cc3O)[nH]c2n(CCC)c1=O = 1.20
CCCn1c(=O)c2nc(-c3ccc(OCC(=O)NCCc4c[nH]cn4)cc3O)[nH]c2n(CCC)c1=O = 2.00
CCCn1c(=O)c2nc(-c3ccc(OCC(=O)NCCN(C)C)cc3O)[nH]c2n(CCC)c1=O = 0.92
CCCn1c(=O)c2nc(-c3ccccc3)[nH]c2n(CCC)c1=O = 1.00
CCCn1c(=O)c2nc(-c3ccc(OCC(=O)O)cc3O)[nH]c2n(CCC)c1=O = 1.57
CCCn1c(=O)c2nc(-c3ccc(C(N)=O)cc3)[nH]c2n(CCC)c1=O = 1.08
CCCn1c(=O)c2nc(-c3ccc(OCC(=O)NCCN)cc3O)[nH]c2n(CCC)c1=O = 0.38

Field: next compound
Query: Record request: log10(Kb) value, item `CCCn1c(=O)c2nc(-c3ccc(OC)cc3)[nH]c2n(CCC)c1=O`
Response: 0.57

The measurements presented in this section are drawn from ChEMBL document CHEMBL1124058.
